Provide the recorded pIC50 for the entries that follow.
- System: FM3A
- Test Summary: Antiproliferative activity against mouse FM3A cells after 2 days by coulter counter method
- Type: functional, cell-based
- Run Parameters: 48 h
Worth noting: pIC50 values are minus log10 of concentrations stated in mol/L.

Input Nc1nc(Nc2ccccc2)sc1C(=O)c1ccccc1 , output reported pIC50.
5.09

Input Cc1ccc(Nc2nc(-n3ccnc3C)cs2)cc1 , output reported pIC50.
5.92

----------
- Test system: HeLa
- Test Summary: Cell cycle arrest in human HeLa cells assessed as accumulation at S phase at 30 nM after 24 hrs uisng propidium iodide staining by flow cytometry
- Format: functional
Outcome: Condition met for Activity of at least 20%; Condition not met for anything lower.

Confirm if Activity reported for the molecule COc1cc(C(=O)c2sc(Nc3ccc(C)cc3)nc2N)cc(OC)c1OC is 20% or above.
Condition not met

Confirm if Activity reported for the molecule COc1ccc(Nc2nc(N)c(C(=O)c3ccc(OC)c(OC)c3)s2)cc1 is 20% or above.
Condition not met

Confirm if Activity reported for the molecule COc1ccc(Nc2nc(N)c(C(=O)c3cccc(OC)c3)s2)cc1 is 20% or above.
Condition met

Confirm if Activity reported for the molecule COc1cc(C(=O)c2sc(Nc3ccccc3)nc2N)cc(OC)c1OC is 20% or above.
Condition met

Confirm if Activity reported for the molecule COc1ccc(Nc2nc(N)c(C(=O)c3ccc(Cl)cc3)s2)cc1 is 20% or above.
Condition not met

----------
- Species: Bos taurus
- Test Summary: Displacement of [3H]colchicine from bovine brain tubulin at 1 uM
Outcome: t for inhibition of at least 80%; f for anything lower.

Confirm if inhibition reported for the molecule Nc1nc(Nc2ccccc2)sc1C(=O)c1ccccc1 is 80% or above.
f

Confirm if inhibition reported for the molecule COc1ccc(Nc2nc(N)c(C(=O)c3cccc(OC)c3)s2)cc1 is 80% or above.
t

Confirm if inhibition reported for the molecule COc1ccc(Nc2nc(N)c(C(=O)c3ccc(Cl)cc3)s2)cc1 is 80% or above.
t

Confirm if inhibition reported for the molecule COc1cc(C(=O)c2sc(Nc3ccccc3)nc2N)cc(OC)c1OC is 80% or above.
f

Confirm if inhibition reported for the molecule COc1cc(C(=O)c2sc(Nc3ccc(C)cc3)nc2N)cc(OC)c1OC is 80% or above.
t
